# System: SN12C (Kidney Carcinoma)
# assay.notes: combination Emax (second highest fraction inhibited in the dose matrix, 72 h); higher = more inhibition; extreme values may be limits of the assay
Examples of compounds with documented combination Emax follow.
// return just the number, without any unit appended

Consider the following illustrative entries.
N#Cc1cnc(Nc2cc(NC[C@H]3CNCCO3)c(C(F)(F)F)cn2)cn1 [SRA737] + C=CCn1c(=O)c2cnc(Nc3ccc(N4CCN(C)CC4)cc3)nc2n1-c1cccc(C(C)(C)O)n1 [AZD1775] (first compound max 10 µM, partner max 1 µM) = 0.212
C=CCn1c(=O)c2cnc(Nc3ccc(N4CCN(C)CC4)cc3)nc2n1-c1cccc(C(C)(C)O)n1 [AZD1775] + Nc1ccn([C@@H]2O[C@H](CO)[C@@H](O)C2(F)F)c(=O)n1 [Gemcitabine] (first compound max 1 µM, partner max 0.3 µM) = 0.576
CN(CCO)CC[C@H](CSc1ccccc1)Nc1ccc(S(=O)(=O)NC(=O)c2ccc(N3CCC([C@@H](O)c4ccccc4-c4ccc(Cl)cc4)CC3)cc2)cc1S(=O)(=O)C(F)(F)F [AZD4320] + Nc1ccn([C@@H]2O[C@H](CO)[C@@H](O)C2(F)F)c(=O)n1 [Gemcitabine] (first compound max 1 µM, 7x7, partner max 0.3 µM) = 0.52
Cc1c2c(nn1C)CSCc1cc(n(C)n1)CSc1cc(c3ccccc3c1)OCCCc1c(C(=O)O)n(C)c3c-2c(Cl)ccc13 [AZD5991] + CC(=O)O[C@H]1C(=O)[C@@]2(C)[C@H]([C@H](OC(=O)c3ccccc3)[C@]3(O)C[C@H](OC(=O)[C@H](O)[C@@H](NC(=O)c4ccccc4)c4ccccc4)C(C)=C1C3(C)C)[C@]1(OC(C)=O)CO[C@@H]1C[C@@H]2O [Paclitaxel] (first compound max 1 µM, 7x7, partner max 3 µM) = 0.44
CC1(C)CCC(CN2CCN(c3ccc(C(=O)NS(=O)(=O)c4ccc(NCC5CCOCC5)c([N+](=O)[O-])c4)c(Oc4cnc5[nH]ccc5c4)c3)CC2)=C(c2ccc(Cl)cc2)C1 [Venetoclax] + COc1cc(Nc2ncc3c(n2)-c2ccc(Cl)cc2C(c2c(F)cccc2OC)=NC3)ccc1C(=O)O [Alisertib] (first compound max 1 µM, 7x7, partner max 10 µM) = 0.318

Alright, here's another compound for you.
Give me measured combination Emax, please, for this compound: CC1(C)CCC(CN2CCN(c3ccc(C(=O)NS(=O)(=O)c4ccc(NCC5CCOCC5)c([N+](=O)[O-])c4)c(Oc4cnc5[nH]ccc5c4)c3)CC2)=C(c2ccc(Cl)cc2)C1 [Venetoclax] + C1CN(CCC1(C(=O)N[C@@H](CCO)C2=CC=C(C=C2)Cl)N)C3=NC=NC4=C3C=CN4 [Capivasertib] (first compound max 1 µM, 7x7, partner max 3 µM)
0.206

----------
# Test system: KATOIII (Gastric Carcinoma);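 further: after 72 h of two-drug dosing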
# assay.notes: Bliss excess, mean over the matrix (fraction); higher = more synergy
Examples of compounds with documented Bliss excess follow.
// return just the number, without any unit appended

Consider the following illustrative entries.
CC1(C)CCC(CN2CCN(c3ccc(C(=O)NS(=O)(=O)c4ccc(NCC5CCOCC5)c([N+](=O)[O-])c4)c(Oc4cnc5[nH]ccc5c4)c3)CC2)=C(c2ccc(Cl)cc2)C1 [Venetoclax] + C[C@@H](Nc1cc(F)cc(F)c1)c1cc(C(=O)N(C)C)cc2c(=O)cc(N3CCOCC3)oc12 [AZD8186] (first compound max 1 µM, 7x7, partner max 3 µM) = -0.0555
CCc1c2c(nc3ccc(O)cc13)-c1cc3c(c(=O)n1C2)COC(=O)[C@]3(O)CC [SN-38] + CN(C)CCCOc1ccc(-c2ccc3ncc4c(c3c2)n(C2CCOCC2)c(=O)n4C)cn1 [AZD0156] (first compound max 0.3 µM, 7x7, partner max 1 µM) = -0.0305

Give me measured Bliss excess, please, for this compound: Cc1c2c(nn1C)CSCc1cc(n(C)n1)CSc1cc(c3ccccc3c1)OCCCc1c(C(=O)O)n(C)c3c-2c(Cl)ccc13 [AZD5991] + C[C@@H]1COCCN1C2=NC(=NC(=C2)C3(CC3)[S@](=N)(=O)C)C4=C5C=CNC5=NC=C4 [AZD6738] (first compound max 1 µM, 7x7, partner max 10 µM)
-0.0192
